Target: Dual specificity tyrosine-phosphorylation-regulated kinase 2 (Homo sapiens)
Sequence (Q92630 whole entry): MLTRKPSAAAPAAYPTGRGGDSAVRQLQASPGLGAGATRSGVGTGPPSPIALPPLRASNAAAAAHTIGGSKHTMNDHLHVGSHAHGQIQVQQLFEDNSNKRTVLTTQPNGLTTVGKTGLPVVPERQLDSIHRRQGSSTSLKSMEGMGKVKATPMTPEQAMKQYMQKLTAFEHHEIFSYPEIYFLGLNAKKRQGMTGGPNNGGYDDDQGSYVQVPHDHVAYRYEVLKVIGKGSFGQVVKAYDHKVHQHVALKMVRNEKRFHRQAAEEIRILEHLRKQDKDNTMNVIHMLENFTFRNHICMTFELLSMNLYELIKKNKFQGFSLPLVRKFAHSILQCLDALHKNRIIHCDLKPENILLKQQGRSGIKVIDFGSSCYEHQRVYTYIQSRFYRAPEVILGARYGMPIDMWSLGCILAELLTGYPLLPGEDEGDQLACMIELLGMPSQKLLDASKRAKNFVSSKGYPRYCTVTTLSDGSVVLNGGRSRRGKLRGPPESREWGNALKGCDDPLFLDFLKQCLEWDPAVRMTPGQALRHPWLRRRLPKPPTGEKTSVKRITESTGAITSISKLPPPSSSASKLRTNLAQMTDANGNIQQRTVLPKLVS
Test: biochemical
Hi there, I'd appreciate the recorded IC50 for every entry that follows.
Numeric only. Scale: µM

Prompt: Given the molecule `COc1ccc2sc(-c3cncc(NC(C)=O)c3)nc2c1` , what is its reported IC50?
Completion: 1.46

Prompt: Which IC50 value is on record for `Cc1ccc([N+](=O)[O-])cc1S(=O)(=O)N(C)/N=C/c1cnc2ccc(Br)cn12` ?
Completion: 0.118

Prompt: Look at this molecule and give its reported IC50. `CC(C)Oc1ccc(F)c(-c2cnc(N)c(C(=O)Nc3cnccc3N3CCC[C@@H](C(=O)O)C3)n2)c1`
Completion: 1.58

Prompt: Report IC50 for COC1=CC2C(=O)NC3=Cc4ccc(OC)cc4C(=C1OC)C32 (configuration not stated) please.
Completion: 0.0268

Prompt: Return reported IC50; argument: `CN(C)c1nccc(-c2cnn3ncccc23)n1`
Completion: 3.27

Prompt: Looking for the measured IC50 of `Oc1ccc(-c2n[nH]c3ncc(-c4ccc(O)c(O)c4)cc23)cc1` , can you help?
Completion: 0.0329

Prompt: Recorded IC50 for `c1ccc(CNc2nc(Nc3cc(C4CC4)[nH]n3)c3sccc3n2)cc1` , please?
Completion: 4.73

Prompt: Name the recorded IC50 for c1cc(OCCN2CCCCC2)cc(-c2n[nH]c3ccc(-c4nc[nH]n4)cc23)c1 [CC-401] .
Completion: 7.92

Prompt: Data request, read-out IC50, for `CN1Cc2nn(C)c(C#N)c2-c2cnc3[nH]cc(c3c2)-c2cn(nc2C(F)(F)F)CCCC1=O`
Completion: 8.78

Prompt: What value of IC50 has been reported for the following molecule? `Cn1cc(-c2ccc3occ(-c4cccc(-c5ccncc5)c4)c3n2)cn1`
Completion: 3.04

Prompt: Entry `CCN1/C(=C/C(C)=O)Sc2ccc(O)cc21` : reported IC50 = ?
Completion: 0.226

Prompt: What value of IC50 has been reported for the following molecule? `O=C1Nc2cc(S(=O)(=O)Cc3c(Cl)cccc3Cl)ccc2S/C1=C\c1ccc(O)c([N+](=O)[O-])c1`
Completion: 1.75

Prompt: IC50 for `Cc1nc2ccc(-c3cc(N)nc(N)c3)nc2n1C(C)C` ?
Completion: 0.01

Prompt: Query (molecule): `Oc1ccc(-c2cnc3[nH]cc(-c4ccc(F)cc4)c3c2)cc1O` ; field requested: IC50
Completion: 3.35

Prompt: Report IC50 for `CC(C)CN1CCC(C(=O)Nc2cc3cc(-c4cnn(C)c4)ccc3cn2)CC1` please.
Completion: 0.215

Prompt: Which IC50 is listed for O=c1c2c(O)cc(O)cc2oc2c(O)ccc(O)c12 [DEMETHYLBELLIDIFOLIN] ?
Completion: 2.71

Prompt: Given CN1C(=O)/C(=C/c2ccc3c(c2)OCO3)N=C1N [LEUCETTAMINE B] , state its recorded IC50.
Completion: 2.73

Prompt: Recorded IC50 of O=C(O)c1ccc2c(c1)nc(Nc1cccc(Cl)c1)c1ccncc12 [SILMITASERTIB] , please.
Completion: 0.0992

Prompt: Given the entry O=C(O[C@@H]1Cc2c(O)cc(O)cc2O[C@@H]1c1cc(O)c(O)c(O)c1)c1cc(O)c(O)c(O)c1 [EPIGALOCATECHIN GALLATE] , report its measured IC50.
Completion: 2

Prompt: Value lookup for IC50; key = `CN1Cc2nn(C)c(C#N)c2-c2cnc3[nH]c(F)c(c3c2)-c2cn(nc2C(F)(F)F)CCCC1=O`
Completion: 1.1

Prompt: # IC50 lookup, item `O=C(Nc1ccc2[nH]ncc2c1)c1csc(Nc2ccccc2)n1`
Completion: 0.439

Prompt: For `O=C1NC(=Nc2c(Cl)cccc2Cl)S/C1=C\c1ccc2nccnc2c1` , what is its reported IC50?
Completion: 0.0156

Prompt: Dear colleague, I am looking for the recorded IC50 of the following molecule: `COC(=N)c1nc2ccc3ncnc(Nc4ccc(OC)cc4F)c3c2s1`
Completion: 0.323

###

Assay: in vitro
Conditions: mouse, ht-22
measured-parameter: IC50 at 48 h (µM)
Your answer is read as µM, so omit the unit and give the number.

Prompt: Which IC50 at 48 h is listed for `Cc1nc2ccc(-c3cc(N)nc(N)c3)nc2n1C(C)C` ?
Completion: 5.8

Prompt: What value of measured IC50 at 48 h is listed for `CC(C)(c1ccc(O)cc1)c1ccc(O)cc1` ?
Completion: 97

Prompt: Data request, read-out IC50 at 48 h, for `CN(C)c1nccc(-c2cnn3ncccc23)n1`
Completion: 58.6

Prompt: Query (molecule): `O=C1NC(NC23CC4CC(CC(C4)C2)C3)=N/C1=C\c1ccc2ncsc2c1` ; field requested: IC50 at 48 h
Completion: 6.3

Prompt: // IC50 at 48 h lookup, key: `COC(=N)c1nc2ccc3ncnc(Nc4ccc(OC)cc4F)c3c2s1`
Completion: 21.6

Prompt: Suppose we examine the molecule `COc1cc(N2CCN(C)CC2)ccc1Nc1nccc(-c2cn(C)c3cnccc23)n1` ; what IC50 at 48 h value has been reported?
Completion: 27.8

Prompt: Quick check: IC50 at 48 h of `CNCc1ccc(-c2[nH]c3cc(F)cc4c3c2CCNC4=O)cc1` ?
Completion: 57

Prompt: Query: IC50 at 48 h; subject: `COc1ccc2c3ccnc(Cl)c3n(CC#N)c2c1`
Completion: 97

Prompt: Report IC50 at 48 h for `Cn1cc(-c2ccc3cnc(NC(=O)C4CCN(S(C)(=O)=O)CC4)cc3c2)cn1` please.
Completion: 5.9

Prompt: Endpoint output: IC50 at 48 h of `O=C1NC(=Nc2c(Cl)cccc2Cl)S/C1=C\c1ccc2nccnc2c1` . Value?
Completion: 27.8

Prompt: Recorded IC50 at 48 h for `COc1cc(/C=C/C(=O)CC(=O)/C=C/c2ccc(O)c(OC)c2)ccc1O` , please?
Completion: 52.4

Prompt: Item COC1=CC2C(=O)NC3=Cc4ccc(OC)cc4C(=C1OC)C32 (stereo not given) has what recorded IC50 at 48 h?
Completion: 20.9

Prompt: May I ask what IC50 at 48 h has been recorded for `c1cc(OCCN2CCCCC2)cc(-c2n[nH]c3ccc(-c4nc[nH]n4)cc23)c1` ?
Completion: 51.7

Prompt: Which IC50 at 48 h is reported for this molecule? `COc1ccc2nc3ccc(OC)cc3c(SCCCN)c2c1`
Completion: 14.5

###

I'd be grateful if you could share measured pIC50 for these entries.
Biological target: Dual specificity protein kinase CLK1 (Homo sapiens)
Sequence (P49759 whole entry): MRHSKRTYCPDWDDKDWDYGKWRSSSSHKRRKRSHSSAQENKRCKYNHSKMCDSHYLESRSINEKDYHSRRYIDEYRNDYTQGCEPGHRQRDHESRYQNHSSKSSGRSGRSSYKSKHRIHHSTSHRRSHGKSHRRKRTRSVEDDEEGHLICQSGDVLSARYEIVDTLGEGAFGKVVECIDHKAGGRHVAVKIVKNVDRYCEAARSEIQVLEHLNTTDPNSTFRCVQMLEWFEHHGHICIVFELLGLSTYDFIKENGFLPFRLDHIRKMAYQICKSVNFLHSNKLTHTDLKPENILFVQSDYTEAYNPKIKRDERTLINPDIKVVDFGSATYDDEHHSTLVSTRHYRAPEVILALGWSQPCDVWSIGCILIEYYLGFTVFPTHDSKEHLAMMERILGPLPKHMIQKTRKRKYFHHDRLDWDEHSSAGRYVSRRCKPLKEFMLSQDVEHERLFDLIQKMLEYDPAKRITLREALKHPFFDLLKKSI
Experiment: biochemical
Type: cell-based, Sf9
The quantity pIC50 is defined as the negative base-10 logarithm of the molar concentration.

Prompt: Can you look up the measured pIC50 of COC1=CC2C(=O)NC3=Cc4ccc(OC)cc4C(=C1OC)C32 (stereo not drawn) for me?
Completion: 7.94

Prompt: What value of pIC50 has been recorded for this entry: `CC(C)CN1CCC(C(=O)Nc2cc3cc(-c4cnn(C)c4)ccc3cn2)CC1`
Completion: 7.08

Prompt: Could you tell me which pIC50 is on file for O=c1c2c(O)cc(O)cc2oc2c(O)ccc(O)c12 [DEMETHYLBELLIDIFOLIN] ?
Completion: 6.62

Prompt: // query pIC50 value for entry `COc1ccc2sc(-c3cncc(NC(C)=O)c3)nc2c1`
Completion: 6.24

Prompt: Could you tell me which pIC50 is on file for `c1ccc(-c2ccc3[nH]ncc3c2)cc1` ?
Completion: 7.40

Prompt: Which pIC50 is reported for this compound? `CN1CCN(c2cc(C(=O)Nc3cc4cc(-c5cnn(C)c5)ccc4cn3)ccn2)CC1`
Completion: 8.15

Prompt: So what does the record say about pIC50 for `O=C1Nc2cc(S(=O)(=O)Cc3c(Cl)cccc3Cl)ccc2S/C1=C\c1ccc(O)c([N+](=O)[O-])c1` ?
Completion: 5.22

Prompt: Please give the measured pIC50 for this compound: `CCN(CC)Cc1ccc(OC)c(-c2cc3c(-c4ccc(C(=O)O)c(C(C)C)c4)ccnc3[nH]2)c1`
Completion: 6.22

Prompt: Using the record for `CCN1/C(=C/C(C)=O)Sc2ccc(O)cc21` , report its pIC50.
Completion: 7.35

Prompt: Look up pIC50: `CC(C)Oc1ccc(F)c(-c2cnc(N)c(C(=O)Nc3cnccc3N3CCC[C@@H](C(=O)O)C3)n2)c1`
Completion: 7.86

Prompt: What pIC50 value was documented for this compound, O=C(O[C@@H]1Cc2c(O)cc(O)cc2O[C@@H]1c1cc(O)c(O)c(O)c1)c1cc(O)c(O)c(O)c1 [EPIGALOCATECHIN GALLATE] ?
Completion: 7.15

Prompt: Item under review: `CCNc1cc(Nc2ccc(C(=O)N3CCC(N4CCOCC4)CC3)cc2OC)nc2[nH]cc(C(F)(F)F)c12` . Reported pIC50?
Completion: 7.15

Prompt: Tell me the measured pIC50 of CCN1CCN(Cc2ccc(Nc3ncc(F)c(-c4cc(F)c5nc(C)n(C(C)C)c5c4)n3)nc2)CC1 [ABEMACICLIB] , please.
Completion: 7.19

Prompt: Suppose we examine the compound `COc1ccc(/C=C2\SC(=S)NC2=O)cc1C#C[Si](C)(C)C` ; what pIC50 value has been reported?
Completion: 5.08

Prompt: Which pIC50 is reported for this compound? `Cc1ccc([N+](=O)[O-])cc1S(=O)(=O)N(C)/N=C/c1cnc2ccc(Br)cn12`
Completion: 7.73

Prompt: Sample `O=C(O)c1nc2ccccc2c2[nH]c3c(I)cccc3c12` — what was its pIC50?
Completion: 5.44

Prompt: Report pIC50 for `O=C1NC(=Nc2c(Cl)cccc2Cl)S/C1=C\c1ccc2nccnc2c1` please.
Completion: 7.68

Prompt: What value of measured pIC50 is listed for `Cn1cc(-c2ccc3cnc(NC(=O)C4CCN(S(C)(=O)=O)CC4)cc3c2)cn1` ?
Completion: 7.42

Prompt: # pIC50 lookup, item `O=C(Nc1ccc2[nH]ncc2c1)c1csc(Nc2ccccc2)n1`
Completion: 7.05

Prompt: Which pIC50 value is on record for `Cc1cccc(N(C)c2nccc(-c3cnn4ncccc34)n2)c1` ?
Completion: 6.90

Prompt: Field request: pIC50 | item: `CN(C)c1nccc(-c2cnn3ncccc23)n1`
Completion: 6.50

Prompt: Can you share its pIC50? I mean this compound: c1cc(OCCN2CCCCC2)cc(-c2n[nH]c3ccc(-c4nc[nH]n4)cc23)c1 [CC-401]
Completion: 6.36

Prompt: Any idea what pIC50 was measured for `Oc1ccc(-c2n[nH]c3ncc(-c4ccc(O)c(O)c4)cc23)cc1` ?
Completion: 7.98

Prompt: What does the record list as pIC50 for `Oc1ccc(-c2cnc3[nH]cc(-c4ccc(F)cc4)c3c2)cc1O` ?
Completion: 6.24

Prompt: Entry `COC(=N)c1nc2ccc3ncnc(Nc4ccc(OC)cc4F)c3c2s1` has what pIC50?
Completion: 5.92

Prompt: Returns the measured pIC50 for the input compound. Input: `CN1CCN(C(=O)C(C)(C)c2ccc(C(=O)Cc3cn4cc(-c5ccncc5)ccc4n3)cc2)CC1`
Completion: 6.97

Prompt: Which measured pIC50 value corresponds to `COc1ccc2c3ccnc(Cl)c3n(CC#N)c2c1` ?
Completion: 6.80

Prompt: // returns reported pIC50 for input `COc1ccc2nc3c(CO)cc(OC)cc3c(SC[C@H]3CCNC3)c2c1`
Completion: 5.90

Prompt: What value of measured pIC50 is listed for `c1ccc(CNc2nc(Nc3cc(C4CC4)[nH]n3)c3sccc3n2)cc1` ?
Completion: 7.12

Prompt: // lookup pIC50 for `COc1cc(N2CCN(C)CC2)ccc1Nc1nccc(-c2cn(C)c3cnccc23)n1`
Completion: 6.25

Prompt: Give the measured pIC50 of CN1C(=O)/C(=C/c2ccc3c(c2)OCO3)N=C1N [LEUCETTAMINE B] .
Completion: 6.19
